Source listed as patent US20240245658A1.

measurement target: human 5-HT2A receptor (Homo sapiens)
Construct: host or cells: CHO-K1
Sequence (P28223 whole entry): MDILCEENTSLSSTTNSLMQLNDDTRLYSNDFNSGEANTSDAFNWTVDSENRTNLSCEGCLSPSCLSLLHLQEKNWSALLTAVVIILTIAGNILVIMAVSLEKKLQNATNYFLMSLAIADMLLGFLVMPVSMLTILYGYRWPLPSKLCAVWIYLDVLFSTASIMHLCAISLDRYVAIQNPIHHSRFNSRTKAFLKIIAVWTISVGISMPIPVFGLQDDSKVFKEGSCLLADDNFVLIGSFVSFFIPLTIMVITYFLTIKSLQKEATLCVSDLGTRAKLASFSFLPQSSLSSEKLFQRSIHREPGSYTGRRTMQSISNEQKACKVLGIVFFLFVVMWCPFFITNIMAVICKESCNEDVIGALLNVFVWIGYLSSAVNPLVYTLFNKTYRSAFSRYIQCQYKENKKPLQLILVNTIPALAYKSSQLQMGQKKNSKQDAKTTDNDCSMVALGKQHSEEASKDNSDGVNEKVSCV
assay details: 5HT2A Antagonism Assay (Euroscreen FAST-05051), IP-One HTRF
Type: cell-based
measurement context: 5-HT2A (IC50), CHO-K1 cells expressing human 5-HT2A, reference agonist at EC80, IP-One
Entries and their IC50

# annotated cases, reported IC50 shown
Problem: Supply reported IC50 belonging to this compound: NCC1Cc2c(F)cccc2Oc2cccnc21 (single isomer, unassigned) [Compound 136]
Solution: 1000 to 10000 nM

Problem: Give a short answer stating reported IC50 for CNCC1Cc2ccccc2Oc2cccnc21 (single isomer, unassigned) [Compound 5] .
Solution: < 1000 nM

Problem: Assign IC50 to the following record: C[C@@H]1c2ccccc2Oc2cccnc2[C@@H]1CN (stereo in doubt)
Solution: > 10000 nM

Problem: Tell me measured IC50 for CNCC1Cc2cc(Cl)ccc2Oc2cccnc21 (single isomer, unassigned) please.
Solution: < 1000 nM

Problem: Return IC50 (reported value) for this compound: CNCC1Cc2ccc(F)cc2Oc2ccccc21 (single isomer, unassigned)
Solution: < 1000 nM

***
Problem: Please give the documented IC50 of CNCC1Cc2c(C)cccc2Oc2cccnc21 (single isomer, unassigned)
Solution: < 1000 nM

Problem: Tell me measured IC50 for NCC1Oc2ccc(F)cc2Oc2ccccc21 (single isomer, unassigned) please.
Solution: < 1000 nM

Problem: # return recorded IC50 for entry NCC1Cc2ccc(Cl)cc2Oc2cccnc21 (single isomer, unassigned) [Compound 125]
Solution: > 10000 nM

Problem: Please list IC50 recorded for the compound Cc1ccc2c(c1)Oc1cccnc1C(CN)C2 (single isomer, unassigned) [Compound 132]
Solution: > 10000 nM

Problem: Consider the compound CNCC1Cc2ccccc2Oc2ccc(C)nc21 (single isomer, unassigned) . State its measured IC50.
Solution: < 1000 nM

Problem: // fetch IC50 given entry NCC1Cc2c(F)cncc2Oc2ccccc21 (single isomer, unassigned) [Compound 154]
Solution: 1000 to 10000 nM

Problem: Fill in IC50 for record Cc1cccc2c1CC(CN)c1ncccc1O2 (single isomer, unassigned) [Compound 140]
Solution: > 10000 nM

Problem: Report IC50 for N#Cc1ccc2c(c1)C(CN)Cc1ncccc1O2 (single isomer, unassigned) [Compound 160]
Solution: < 1000 nM

Problem: Respond only with IC50 recorded for NCC1Cc2ccccc2Oc2cccnc21 (single isomer, unassigned)
Solution: > 10000 nM

====

measurement target: UniProt Q96RJ0
Sequence (Q96RJ0 whole entry): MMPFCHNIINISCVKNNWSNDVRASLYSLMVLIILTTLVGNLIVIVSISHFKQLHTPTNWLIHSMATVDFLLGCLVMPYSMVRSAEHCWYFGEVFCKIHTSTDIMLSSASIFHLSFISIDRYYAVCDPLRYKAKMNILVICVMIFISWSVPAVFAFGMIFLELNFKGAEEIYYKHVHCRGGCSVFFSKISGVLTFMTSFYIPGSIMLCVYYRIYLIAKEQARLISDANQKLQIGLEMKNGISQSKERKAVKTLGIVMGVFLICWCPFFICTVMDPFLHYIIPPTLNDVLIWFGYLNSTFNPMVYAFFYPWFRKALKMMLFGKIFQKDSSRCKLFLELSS
assay details: TAAR1 Agonism Assay: cAMP HTRF assay for Gs coupled receptor TAAR1 (Euroscreen FAST-0987C)
measurement context: CHO-K1 cells expressing human TAAR1, cAMP HTRF
Entries and their EC50

Problem: Supply EC50 value. Item: NCC1Cc2c(F)cncc2Oc2ccccc21 (single isomer, unassigned) [Compound 153]
Solution: < 1 µM

Problem: Please indicate EC50 recorded for N#Cc1ccc2c(c1)C(CN)Cc1ncccc1O2 (single isomer, unassigned) [Compound 160]
Solution: < 1 µM

Problem: Give a short answer stating reported EC50 for NCC1Cc2cc(F)ccc2Oc2ccccc21 (single isomer, unassigned) [Compound 97] .
Solution: > 10 µM

Problem: Answer with the recorded EC50 of CNCC1Cc2ncccc2Oc2c(F)cccc21 (single isomer, unassigned) [Compound 177] only.
Solution: > 10 µM

Problem: Please look at this compound and report its EC50: NCC1Cc2ccccc2Oc2ccc(F)cc21 (single isomer, unassigned) [Compound 93]
Solution: 1 to 10 µM

Next:
Problem: Identify measured EC50 associated with CNCC1Cc2ccccc2Oc2cccc(F)c21 (single isomer, unassigned) [Compound 106]
Solution: < 1 µM

Problem: State, in one line, measured EC50 of CNCC1Cc2ncccc2Oc2ccc(C#N)cc21 (single isomer, unassigned) [Compound 162]
Solution: > 10 µM

Problem: Give me measured EC50, please, for this compound: NCC1Oc2ccccc2Oc2ncccc21 (single isomer, unassigned) [Compound 48]
Solution: 1 to 10 µM
